Test system: PC-12
Assay: Scavenging activity against nitric oxide radical generation in rat PC12 cells assessed as cell survival by MTT assay
Type: functional, cell-based
Please provide measured pEC50 for the entries that follow.
# pEC50 is unitless: minus log10 of the molar concentration; print number only

Using known records, supply pEC50 for COc1cc(C2N[C@H](C(=O)N[C@@H](CCCNC(=N)N)C(=O)NCC(=O)NN(CC(=O)O)CC(=O)N[C@H](C(=O)O)C(C)C)Cc3c2[nH]c2ccccc32)cc(OC)c1O (some centres undefined)
4.05

Note pEC50 for the compound shown: COc1cc(C2N[C@H](C(=O)NN(CCCNC(=N)N)CC(=O)NCC(=O)N[C@@H](CC(=O)O)C(=O)N[C@H](C(=O)O)C(C)C)Cc3c2[nH]c2ccccc32)cc(OC)c1O (some centres undefined)
4.02

Report pEC50, nothing else, for this compound: COc1cc(C2N[C@H](C(=O)O)Cc3c2[nH]c2ccccc32)cc(OC)c1O (some centres undefined)
4.05

Give reported pEC50 value for COc1cc(C2N[C@H](C(=O)N[C@@H](CCCNC(=N)N)C(=O)NNCC(=O)N[C@@H](CC(=O)O)C(=O)N[C@H](C(=O)O)C(C)C)Cc3c2[nH]c2ccccc32)cc(OC)c1O (some centres undefined)
4.04

====

System: Aorta
Test: Scavenging activity against nitric oxide radical generation in Wistar rat aortic strips cells assessed as inhibition of acetylcholine-induced vasorelaxation at 0.1 umol/L
Test readout: inhibition (%)
The figure you give is taken to be in %; do not add the unit.

Quote inhibition reported for COc1cc(C2N[C@H](C(=O)O)Cc3c2[nH]c2ccccc32)cc(OC)c1O (some centres undefined) please.
55.3

Specify reported inhibition for the compound shown: COc1cc(C2N[C@H](C(=O)N[C@@H](CCCNC(=N)N)C(=O)NNCC(=O)N[C@H](CC(=O)O)C(=O)N[C@H](C(=O)O)C(C)C)Cc3c2[nH]c2ccccc32)cc(OC)c1O (some centres undefined)
71

Using known records, supply inhibition for COc1cc(C2N[C@H](C(=O)NN(CCCNC(=N)N)CC(=O)NCC(=O)N[C@H](CC(=O)O)C(=O)N[C@H](C(=O)O)C(C)C)Cc3c2[nH]c2ccccc32)cc(OC)c1O (some centres undefined)
75.3

Supply reported inhibition belonging to this compound: COc1cc(C2N[C@H](C(=O)N[C@@H](CCCNC(=N)N)C(=O)NCC(=O)NN(CC(=O)O)CC(=O)N[C@H](C(=O)O)C(C)C)Cc3c2[nH]c2ccccc32)cc(OC)c1O (some centres undefined)
63.7

====

Test system: Aorta
Assay: Scavenging activity against nitric oxide radical generation in Wistar rat aortic strips cells assessed as inhibition of acetylcholine-induced vasorelaxation at 0.01 umol/L
Test readout: inhibition

Specify reported inhibition for the molecule shown: COc1cc(C2N[C@H](C(=O)N[C@@H](CCCNC(=N)N)C(=O)NCC(=O)NN(CC(=O)O)CC(=O)N[C@H](C(=O)O)C(C)C)Cc3c2[nH]c2ccccc32)cc(OC)c1O (some centres undefined)
13%

Please give the documented inhibition of COc1cc(C2N[C@H](C(=O)N[C@@H](CCCNC(=N)N)C(=O)NNCC(=O)N[C@H](CC(=O)O)C(=O)N[C@H](C(=O)O)C(C)C)Cc3c2[nH]c2ccccc32)cc(OC)c1O (some centres undefined)
14.1%

Give the reported value of inhibition for this record: COc1cc(C2N[C@H](C(=O)O)Cc3c2[nH]c2ccccc32)cc(OC)c1O (some centres undefined)
10.8%

Fill in reported inhibition for this entry: COc1cc(C2N[C@H](C(=O)NN(CCCNC(=N)N)CC(=O)NCC(=O)N[C@H](CC(=O)O)C(=O)N[C@H](C(=O)O)C(C)C)Cc3c2[nH]c2ccccc32)cc(OC)c1O (some centres undefined)
28.3%
